TARGET SYSTEM: T1, recombinant human IL-12 (rhIL-12) (human, UniProt P29459 23-219; P29460 23-328)
T1 chain 1: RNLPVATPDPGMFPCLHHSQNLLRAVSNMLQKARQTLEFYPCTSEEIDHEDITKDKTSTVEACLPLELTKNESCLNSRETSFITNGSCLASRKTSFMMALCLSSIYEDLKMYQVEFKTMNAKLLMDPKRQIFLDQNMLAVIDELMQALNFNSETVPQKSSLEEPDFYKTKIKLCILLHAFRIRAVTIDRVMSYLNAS
T1 chain 2: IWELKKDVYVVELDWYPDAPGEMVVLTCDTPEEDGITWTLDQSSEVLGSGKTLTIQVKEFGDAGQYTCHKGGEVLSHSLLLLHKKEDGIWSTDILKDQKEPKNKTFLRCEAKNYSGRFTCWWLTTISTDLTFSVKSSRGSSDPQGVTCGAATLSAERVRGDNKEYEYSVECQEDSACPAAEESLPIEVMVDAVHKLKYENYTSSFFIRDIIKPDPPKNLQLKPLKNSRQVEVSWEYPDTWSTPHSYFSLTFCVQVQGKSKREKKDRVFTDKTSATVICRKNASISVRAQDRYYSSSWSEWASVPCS
MEASUREMENT PROTOCOL: BIAcore
MEASUREMENT NAME: koff (s⁻¹)

{"BINDER": "PNDQRPS [Y61 L50 P]", "ASSAY VALUE": 0.00041}
{"BINDER": "SNDQRPS [Y61 L50 S]", "ASSAY VALUE": 0.000286}
{"BINDER": "KNDQRPS [Y61 L50 K]", "ASSAY VALUE": 0.00243}
{"BINDER": "GNDYRPS [Y61 L53 Y]", "ASSAY VALUE": 0.000733}
